# Experiment description: physchem
# Condition set: buffer, pH 4
Readout label: solubility at 24 h

// worked examples, solubility at 24 h included
{"Mol": "CC(C)N1CC(C#CC#Cc2cc3n(c2)C(=O)N(CC[C@](C)(C(=O)NO)S(C)(=O)=O)C3)C1", "Readout label": "solubility at 24 h", "Measured": "> 780 µg/mL"}
{"Mol": "C[C@@](CCN1Cc2cc(C#CC#C[C@@H]3C[C@H]3CO)cn2C1=O)(C(=O)NO)S(C)(=O)=O", "Readout label": "solubility at 24 h", "Measured": "600 µg/mL"}
{"Mol": "C[C@@](CCN1Cc2cc(C#CC#CC3CN(CC(F)F)C3)cn2C1=O)(C(=O)NO)S(C)(=O)=O", "Readout label": "solubility at 24 h", "Measured": "> 820 µg/mL"}
{"Mol": "CN1CCC(F)(C#CC#Cc2cc3n(c2)C(=O)N(CC[C@](C)(C(=O)NO)S(C)(=O)=O)C3)CC1", "Readout label": "solubility at 24 h", "Measured": "> 810 µg/mL"}
{"Mol": "C[C@@](CCN1Cc2cc(C#CC#CC3CN(C4COC4)C3)cn2C1=O)(C(=O)NO)S(C)(=O)=O", "Readout label": "solubility at 24 h", "Measured": "> 800 µg/mL"}

Answer with the recorded solubility at 24 h for the compound listed here: `C[C@@](CCN1Cc2cc(C#CC#CC3CN(CCF)C3)cn2C1=O)(C(=O)NO)S(C)(=O)=O`
> 780 µg/mL

Answer with the recorded solubility at 24 h for the compound listed here: `C[C@@](CCN1Cc2cc(C#CC#CC3CNC3)cn2C1=O)(C(=O)NO)S(C)(=O)=O`
> 710 µg/mL

Answer with the recorded solubility at 24 h for the compound listed here: `CC(=O)N1CC(C#CC#Cc2cc3n(c2)C(=O)N(CC[C@](C)(C(=O)NO)S(C)(=O)=O)C3)C1`
> 780 µg/mL

---

# Experiment description: in vivo
# Condition set: Wistar, rat, iv, 50 mg/kg
Readout label: clearance at 24 h (mL/min/kg)
# number only, unit mL/min/kg dropped from output

Answer with the recorded clearance at 24 h for the compound listed here: `C[C@@](CCN1Cc2cc(C#CC#CC3CN(CCO)C3)cn2C1=O)(C(=O)NO)S(C)(=O)=O`
28

---

# Experiment description: physchem
# Condition set: 5% mannitol/water, pH 4.5
Listed here are compounds together with their documented solubility.
# number only, unit mg/mL dropped from output

// worked examples, solubility included
{"Mol": "CN1CC(C#CC#Cc2cc3n(c2)C(=O)N(CC[C@](C)(C(=O)NO)S(C)(=O)=O)C3)C1", "Readout label": "solubility", "Measured": 30}
{"Mol": "C[C@@](CCN1Cc2cc(C#CC#CC3CN(CCF)C3)cn2C1=O)(C(=O)NO)S(C)(=O)=O", "Readout label": "solubility", "Measured": 25}

Next item in the queue.
Answer with the recorded solubility for the compound listed here: `C[C@@](CCN1Cc2cc(C#CC#CC3CN(CCO)C3)cn2C1=O)(C(=O)NO)S(C)(=O)=O`
30

---

# Tested on: Klebsiella pneumoniae
# Experiment description: microbe, parasite or virus in culture
# Condition set: T6474
The label is Fulfilled for MIC below 0.5 µg/mL and Not fulfilled for MIC equal to or exceeding 0.5 µg/mL.

{"Mol": "C[C@@](CCN1Cc2cc(C#CC#C[C@@H]3C[C@H]3CO)cn2C1=O)(C(=O)NO)S(C)(=O)=O", "Cat": "Fulfilled"}
{"Mol": "C[C@@](CCN1Cc2cc(C#CC#C[C@@H]3C[C@H]3[C@H](O)CO)cn2C1=O)(C(=O)NO)S(C)(=O)=O", "Cat": "Not fulfilled"}
{"Mol": "CN1CCC(F)(C#CC#Cc2cc3n(c2)C(=O)N(CC[C@](C)(C(=O)NO)S(C)(=O)=O)C3)CC1", "Cat": "Not fulfilled"}
{"Mol": "CN1CCC(C#CC#Cc2cc3n(c2)C(=O)N(CC[C@](C)(C(=O)NO)S(C)(=O)=O)C3)CC1", "Cat": "Not fulfilled"}
{"Mol": "C[C@@](CCN1Cc2cc(C#CC#CC3(CO)CC3)cn2C1=O)(C(=O)NO)S(C)(=O)=O", "Cat": "Not fulfilled"}

# TODO verify MIC < 0.5 µg/mL strictly for this compound: `C[C@@](CCN1Cc2cc(C#CC#CC3(CN)CC3)cn2C1=O)(C(=O)NO)S(C)(=O)=O`
Not fulfilled

# TODO verify MIC < 0.5 µg/mL strictly for this compound: `C[C@@](CCN1Cc2cc(C#CC#CC3(F)CNC3)cn2C1=O)(C(=O)NO)S(C)(=O)=O`
Not fulfilled

# TODO verify MIC < 0.5 µg/mL strictly for this compound: `C[C@@](CCN1Cc2cc(C#CC#CC3CCN(C4COC4)CC3)cn2C1=O)(C(=O)NO)S(C)(=O)=O`
Not fulfilled

# TODO verify MIC < 0.5 µg/mL strictly for this compound: `C[C@@](CCN1Cc2cc(C#CC#CC3CN(CCO)C3)cn2C1=O)(C(=O)NO)S(C)(=O)=O`
Not fulfilled

# TODO verify MIC < 0.5 µg/mL strictly for this compound: `C[C@@](CCN1Cc2cc(C#CC#CCN3CCC(O)CC3)cn2C1=O)(C(=O)NO)S(C)(=O)=O`
Not fulfilled

# TODO verify MIC < 0.5 µg/mL strictly for this compound: `C[C@@](CCN1Cc2cc(C#CC#CC3CN(CC(F)F)C3)cn2C1=O)(C(=O)NO)S(C)(=O)=O`
Fulfilled

# TODO verify MIC < 0.5 µg/mL strictly for this compound: `CC(=O)N1CC(C#CC#Cc2cc3n(c2)C(=O)N(CC[C@](C)(C(=O)NO)S(C)(=O)=O)C3)C1`
Not fulfilled

# TODO verify MIC < 0.5 µg/mL strictly for this compound: `C[C@@](CCN1Cc2cc(C#CC#C[C@H]3C[C@@H]3[C@@H](O)CO)cn2C1=O)(C(=O)NO)S(C)(=O)=O`
Not fulfilled

# TODO verify MIC < 0.5 µg/mL strictly for this compound: `CC(C)(O)CN1CC(C#CC#Cc2cc3n(c2)C(=O)N(CC[C@](C)(C(=O)NO)S(C)(=O)=O)C3)C1`
Not fulfilled

# TODO verify MIC < 0.5 µg/mL strictly for this compound: `CNC1(C#CC#Cc2cc3n(c2)C(=O)N(CC[C@](C)(C(=O)NO)S(C)(=O)=O)C3)CC1`
Fulfilled

# TODO verify MIC < 0.5 µg/mL strictly for this compound: `C[C@]1(CO)C[C@@H]1C#CC#Cc1cc2n(c1)C(=O)N(CC[C@](C)(C(=O)NO)S(C)(=O)=O)C2`
Fulfilled

---

# System: Escherichia coli
# Experiment description: microbe, parasite or virus in culture
# Condition set: ATCC 25922
The label is 1 for MIC below 0.2 µg/mL and 0 for MIC equal to or exceeding 0.2 µg/mL.

Previously resolved entries follow.
{"Mol": "CN1CC(C#CC#Cc2cc3n(c2)C(=O)N(CC[C@](C)(C(N)=O)S(C)(=O)=O)C3)C1", "Cat": 0}
{"Mol": "C[C@@](CCN1Cc2cc(C#CC#CC3CNC3)cn2C1=O)(C(=O)NO)S(C)(=O)=O", "Cat": 0}
{"Mol": "CN1CC(F)(C#CC#Cc2cc3n(c2)C(=O)N(CC[C@](C)(C(=O)NO)S(C)(=O)=O)C3)C1", "Cat": 1}
{"Mol": "C[C@@](CCN1Cc2cc(C#CC#CC3CN(CC(F)F)C3)cn2C1=O)(C(=O)NO)S(C)(=O)=O", "Cat": 1}
{"Mol": "C[C@@](CCN1Cc2cc(C#CC#CC3(CN)CC3)cn2C1=O)(C(=O)NO)S(C)(=O)=O", "Cat": 0}
{"Mol": "C[C@@](CCN1Cc2cc(C#CC#C[C@H]3C[C@]3(F)CO)cn2C1=O)(C(=O)NO)S(C)(=O)=O", "Cat": 0}

# TODO verify MIC < 0.2 µg/mL strictly for this compound: `C[C@@](CCN1Cc2cc(C#CC#C[C@@H]3C[C@H]3[C@H](O)CO)cn2C1=O)(C(=O)NO)S(C)(=O)=O`
0

---

# Experiment description: physchem
# Condition set: buffer, pH 7
Listed here are compounds together with their documented solubility at 24 h.
# number only, unit µg/mL dropped from output

// worked examples, solubility at 24 h included
{"Mol": "C[C@@](CCN1Cc2cc(C#CC#CC3CN(C4COC4)C3)cn2C1=O)(C(=O)NO)S(C)(=O)=O", "solubility at 24 h, µg/mL": 128}
{"Mol": "CN1CCC(F)(C#CC#Cc2cc3n(c2)C(=O)N(CC[C@](C)(C(=O)NO)S(C)(=O)=O)C3)CC1", "solubility at 24 h, µg/mL": 384}
{"Mol": "C[C@@](CCN1Cc2cc(C#CC#CC3CN(CC(F)F)C3)cn2C1=O)(C(=O)NO)S(C)(=O)=O", "solubility at 24 h, µg/mL": 209}
{"Mol": "C[C@@](CCN1Cc2cc(C#CC#C[C@H]3C[C@@H]3CO)cn2C1=O)(C(=O)NO)S(C)(=O)=O", "solubility at 24 h, µg/mL": 588}
{"Mol": "CN1CC(C#CC#Cc2cc3n(c2)C(=O)N(CC[C@](C)(C(N)=O)S(C)(=O)=O)C3)C1", "solubility at 24 h, µg/mL": 706}
{"Mol": "C[C@@](CCN1Cc2cc(C#CC#CC3(CO)CC3)cn2C1=O)(C(=O)NO)S(C)(=O)=O", "solubility at 24 h, µg/mL": 384}
{"Mol": "C[C@@](CCN1Cc2cc(C#CC#C[C@H]3C[C@]3(F)CO)cn2C1=O)(C(=O)NO)S(C)(=O)=O", "solubility at 24 h, µg/mL": 613}

Answer with the recorded solubility at 24 h for the compound listed here: `C[C@@](CCN1Cc2cc(C#CC#CC3(CN)CC3)cn2C1=O)(C(=O)NO)S(C)(=O)=O`
552

The reported measurements were obtained from ChEMBL document CHEMBL4321867.
